Overview of reported relative viability across a group of molecules:
Test system: NCI-H460
EXPERIMENT_SUMMARY: relative viability (nuclei count vs DMSO), 5 days (fraction); higher = more cells survive
EXPERIMENTAL_CONTEXT: first compound 0.03162 µM

Exercise: Recorded relative viability of O=c1cc(N2CCOCC2)oc2c(-c3cccc4c3sc3ccccc34)cccc12 + N=C(N)NC(=N)NCCc1ccccc1 [Phenformin] (partner 250 µM) , please.
Solution: 0.522

Exercise: Similarly, O=c1cc(N2CCOCC2)oc2c(-c3cccc4c3sc3ccccc34)cccc12 + CC(=O)Nc1cccc(-n2c(=O)n(C3CC3)c(=O)c3c(Nc4ccc(I)cc4F)n(C)c(=O)c(C)c32)c1 [Trametinib] (partner 0.02 µM) ?
Solution: 0.127

Exercise: Similarly, O=c1cc(N2CCOCC2)oc2c(-c3cccc4c3sc3ccccc34)cccc12 + CC(C)C[C@H](NC(=O)[C@H](Cc1ccccc1)NC(=O)c1cnccn1)B(O)O [Bortezomib] (partner 0.002 µM) ?
Solution: 1.13

Exercise: Similarly, O=c1cc(N2CCOCC2)oc2c(-c3cccc4c3sc3ccccc34)cccc12 + CC(=O)c1c(C)c2cnc(Nc3ccc(N4CCNCC4)cn3)nc2n(C2CCCC2)c1=O [Palbociclib] (partner 0.5 µM) ?
Solution: 0.18

Exercise: Similarly, CCN(CC)CCCCNc1ncc2cc(-c3cc(OC)cc(OC)c3)c(NC(=O)NC(C)(C)C)nc2n1 + CS(=O)(=O)N1CCN(Cc2cc3nc(-c4cccc5[nH]ncc45)nc(N4CCOCC4)c3s2)CC1 [Pictilisib] (partner 1 µM) ?
Solution: 0.258

###

System: CAL-12T
EXPERIMENT_SUMMARY: relative viability (nuclei count vs DMSO), 5 days (fraction); higher = more cells survive
EXPERIMENTAL_CONTEXT: first compound 0.253 µM
Overview of reported relative viability across a group of compounds:
Reply briefly: the number, and no unit.

COc1nc(C)cnc1NS(=O)(=O)c1cccnc1-c1ccc(-c2nnco2)cc1 [Zibotentan] + N=C(N)NC(=N)NCCc1ccccc1 [Phenformin] (partner 250 µM)
0.482

Exercise: Recorded relative viability of COc1nc(C)cnc1NS(=O)(=O)c1cccnc1-c1ccc(-c2nnco2)cc1 [Zibotentan] + NC(=O)Nc1cc(-c2cccc(F)c2)sc1C(=O)N[C@H]1CCCNC1 [AZD7762] (partner 0.2 µM) , please.
Solution: 0.498

Exercise: Similarly, COc1nc(C)cnc1NS(=O)(=O)c1cccnc1-c1ccc(-c2nnco2)cc1 [Zibotentan] + C[C@]1(O)C[C@@H](c2nc(-c3ccc4ccc(-c5ccccc5)nc4c3)c3c(N)nccn32)C1 [Linsitinib] (partner 1 µM) ?
Solution: 0.876

Exercise: Similarly, COc1nc(C)cnc1NS(=O)(=O)c1cccnc1-c1ccc(-c2nnco2)cc1 [Zibotentan] + O=C(CCCCCCC(=O)Nc1ccccc1)NO [Vorinostat] (partner 1 µM) ?
Solution: 0.543

###

Overview of reported relative viability across a group of compounds:
System: NCI-H596
EXPERIMENT_SUMMARY: relative viability (nuclei count vs DMSO), 5 days (fraction); higher = more cells survive
EXPERIMENTAL_CONTEXT: first compound 0.3162 µM
Reply briefly: the number, and no unit.

// solved cases for relative viability follow
O=c1cc(N2CCOCC2)oc2c(-c3cccc4c3sc3ccccc34)cccc12 + Cc1nc(Nc2ncc(C(=O)Nc3c(C)cccc3Cl)s2)cc(N2CCN(CCO)CC2)n1 [Dasatinib] (partner 0.075 µM)
0.558
CCN(CC)CCCCNc1ncc2cc(-c3cc(OC)cc(OC)c3)c(NC(=O)NC(C)(C)C)nc2n1 + Cc1nc(Nc2ncc(C(=O)Nc3c(C)cccc3Cl)s2)cc(N2CCN(CCO)CC2)n1 [Dasatinib] (partner 0.075 µM)
0.393
O=c1cc(N2CCOCC2)oc2c(-c3cccc4c3sc3ccccc34)cccc12 + CS(=O)(=O)N1CCN(Cc2cc3nc(-c4cccc5[nH]ncc45)nc(N4CCOCC4)c3s2)CC1 [Pictilisib] (partner 1 µM)
0.395
O=c1cc(N2CCOCC2)oc2c(-c3cccc4c3sc3ccccc34)cccc12 + C[C@@H](Oc1cc(-c2cnn(C3CCNCC3)c2)cnc1N)c1c(Cl)ccc(F)c1Cl [Crizotinib] (partner 1 µM)
0.948

API: the following record is the query input.
Exercise: Recorded relative viability of CCN(CC)CCCCNc1ncc2cc(-c3cc(OC)cc(OC)c3)c(NC(=O)NC(C)(C)C)nc2n1 + COc1cccc2cc(-c3nc([C@H]4CC[C@H](C(=O)O)CC4)n4ncnc(N)c34)[nH]c12 [OSI-027] (partner 0.5 µM) , please.
Solution: 0.709

###

System: PC-14
EXPERIMENT_SUMMARY: relative viability (nuclei count vs DMSO), 5 days (fraction); higher = more cells survive
EXPERIMENTAL_CONTEXT: first compound 2 µM
Overview of reported relative viability across a group of compounds:
Reply briefly: the number, and no unit.

// solved cases for relative viability follow
COCC1(CO)C(=O)C2CCN1CC2 (stereo not given) [PRIMA-1MET] + O=C(CCCCCCC(=O)Nc1ccccc1)NO [Vorinostat] (partner 1 µM)
0.728
COCC1(CO)C(=O)C2CCN1CC2 (stereo not given) [PRIMA-1MET] + Cc1nc(Nc2ncc(C(=O)Nc3c(C)cccc3Cl)s2)cc(N2CCN(CCO)CC2)n1 [Dasatinib] (partner 0.075 µM)
0.276
COCC1(CO)C(=O)C2CCN1CC2 (stereo not given) [PRIMA-1MET] + CC(=O)c1c(C)c2cnc(Nc3ccc(N4CCNCC4)cn3)nc2n(C2CCCC2)c1=O [Palbociclib] (partner 0.5 µM)
0.509
COCC1(CO)C(=O)C2CCN1CC2 (stereo not given) [PRIMA-1MET] + CC1(C)CCC(c2ccc(Cl)cc2)=C(CN2CCN(c3ccc(C(=O)NS(=O)(=O)c4ccc(N[C@H](CCN5CCOCC5)CSc5ccccc5)c(S(=O)(=O)C(F)(F)F)c4)cc3)CC2)C1 [Navitoclax] (partner 0.5 µM)
0.936

API: the following record is the query input.
Exercise: Recorded relative viability of COCC1(CO)C(=O)C2CCN1CC2 (stereo not given) [PRIMA-1MET] + C[C@]1(O)C[C@@H](c2nc(-c3ccc4ccc(-c5ccccc5)nc4c3)c3c(N)nccn32)C1 [Linsitinib] (partner 1 µM) , please.
Solution: 0.923

###

Test system: PC-14
EXPERIMENT_SUMMARY: relative viability (nuclei count vs DMSO), 5 days (fraction); higher = more cells survive
EXPERIMENTAL_CONTEXT: first compound 0.01 µM
Overview of reported relative viability across a group of compounds:

CCN(CC)CCCCNc1ncc2cc(-c3cc(OC)cc(OC)c3)c(NC(=O)NC(C)(C)C)nc2n1 + C[C@]1(O)C[C@@H](c2nc(-c3ccc4ccc(-c5ccccc5)nc4c3)c3c(N)nccn32)C1 [Linsitinib] (partner 1 µM)
1.01

Exercise: Tell me reported relative viability for O=c1cc(N2CCOCC2)oc2c(-c3cccc4c3sc3ccccc34)cccc12 + COc1cccc2cc(-c3nc([C@H]4CC[C@H](C(=O)O)CC4)n4ncnc(N)c34)[nH]c12 [OSI-027] (partner 0.5 µM) , tested with PC-14.
Solution: 0.954

Exercise: Similarly, O=c1cc(N2CCOCC2)oc2c(-c3cccc4c3sc3ccccc34)cccc12 + Cc1nc(Nc2ncc(C(=O)Nc3c(C)cccc3Cl)s2)cc(N2CCN(CCO)CC2)n1 [Dasatinib] (partner 0.075 µM) ?
Solution: 0.237

Exercise: Similarly, O=c1cc(N2CCOCC2)oc2c(-c3cccc4c3sc3ccccc34)cccc12 + Nc1nc2[nH]cc(CCc3ccc(C(=O)N[C@@H](CCC(=O)O)C(=O)O)cc3)c2c(=O)[nH]1 [Pemetrexed] (partner 0.2 µM) ?
Solution: 0.133

###

Tested on: H3255
EXPERIMENT_SUMMARY: relative viability (nuclei count vs DMSO), 5 days (fraction); higher = more cells survive
EXPERIMENTAL_CONTEXT: first compound 0.01 µM
Overview of reported relative viability across a group of compounds:

O=c1cc(N2CCOCC2)oc2c(-c3cccc4c3sc3ccccc34)cccc12 + CC(C)C[C@H](NC(=O)[C@H](Cc1ccccc1)NC(=O)c1cnccn1)B(O)O [Bortezomib] (partner 0.002 µM)
0.696
CCN(CC)CCCCNc1ncc2cc(-c3cc(OC)cc(OC)c3)c(NC(=O)NC(C)(C)C)nc2n1 + N=C(N)NC(=N)NCCc1ccccc1 [Phenformin] (partner 250 µM)
0.347

Exercise: Recorded relative viability of CCN(CC)CCCCNc1ncc2cc(-c3cc(OC)cc(OC)c3)c(NC(=O)NC(C)(C)C)nc2n1 + O=C(CCCCCCC(=O)Nc1ccccc1)NO [Vorinostat] (partner 1 µM) , please.
Solution: 0.702

###

Tested on: NCI-H460
EXPERIMENT_SUMMARY: relative viability (nuclei count vs DMSO), 5 days (fraction); higher = more cells survive
EXPERIMENTAL_CONTEXT: first compound 0.08 µM
METRIC_NAME: relative viability
Reply briefly: the number, and no unit.

// solved cases for relative viability follow
COc1nc(C)cnc1NS(=O)(=O)c1cccnc1-c1ccc(-c2nnco2)cc1 [Zibotentan] + O=C(CCCCCCC(=O)Nc1ccccc1)NO [Vorinostat] (partner 1 µM)
0.673
O=c1cc(-c2cccc3c2Sc2ccccc2S3)oc(N2CCOCC2)c1 + C[C@]1(O)C[C@@H](c2nc(-c3ccc4ccc(-c5ccccc5)nc4c3)c3c(N)nccn32)C1 [Linsitinib] (partner 1 µM)
0.991
COc1nc(C)cnc1NS(=O)(=O)c1cccnc1-c1ccc(-c2nnco2)cc1 [Zibotentan] + C[C@]1(O)C[C@@H](c2nc(-c3ccc4ccc(-c5ccccc5)nc4c3)c3c(N)nccn32)C1 [Linsitinib] (partner 1 µM)
0.789
COc1nc(C)cnc1NS(=O)(=O)c1cccnc1-c1ccc(-c2nnco2)cc1 [Zibotentan] + N=C(N)NC(=N)NCCc1ccccc1 [Phenformin] (partner 250 µM)
0.56

Exercise: Tell me reported relative viability for COc1nc(C)cnc1NS(=O)(=O)c1cccnc1-c1ccc(-c2nnco2)cc1 [Zibotentan] + COc1cccc2cc(-c3nc([C@H]4CC[C@H](C(=O)O)CC4)n4ncnc(N)c34)[nH]c12 [OSI-027] (partner 0.5 µM) , tested with NCI-H460.
Solution: 0.665

Exercise: Similarly, COc1nc(C)cnc1NS(=O)(=O)c1cccnc1-c1ccc(-c2nnco2)cc1 [Zibotentan] + COc1cc2c(Oc3ccc(NC(=O)C4(C(=O)Nc5ccc(F)cc5)CC4)cc3F)ccnc2cc1OCCCN1CCOCC1 [Foretinib] (partner 0.25 µM) ?
Solution: 1.09
